Each recorded value in this set is attributed to the supplement of paper PMC9112550.

# System: Escherichia coli TOP10
# test-protocol: shrunken log2 fold change of peptide-encoding DNA abundance (4.5 h post-induction vs induction); higher = less antimicrobial activity (less host growth inhibition)
# experimental-context: time post-induction: 4.5 h; library: site-saturation at positions 5, 18, 19, 20
Use T when the recorded shrunken log2 fold change is no lower than -0.1; use F when it is lower.

>>> label_value("RRIRIRPPRLPRPRPRPSQPPRP")
"T"
>>> label_value("RRIRYRPPRLPRPRPRPGYSPRP")
"F"
>>> label_value("RRIRYRPPRLPRPRPRPHCYPRP")
"F"

[Q] shrunken log2 fold change >= -0.1 for RRIRWRPPRLPRPRPRPYQIPRP ?
[A] T

[Q] Quick check: does RRIRGRPPRLPRPRPRPNIYPRP have shrunken log2 fold change greater than or equal to -0.1?
[A] F

[Q] Could you tell me if the measured shrunken log2 fold change of RRIRIRPPRLPRPRPRPKEQPRP reaches -0.1 or more?
[A] T

[Q] Entry RRIRSRPPRLPRPRPRPEYQPRP : is its shrunken log2 fold change no less than -0.1?
[A] T

[Q] Does RRIRCRPPRLPRPRPRPTTRPRP have a reported shrunken log2 fold change of at least -0.1?
[A] T

[Q] Confirm if shrunken log2 fold change reported for the sequence RRIRLRPPRLPRPRPRPMTAPRP is -0.1 or above.
[A] T

[Q] # check: shrunken log2 fold change of RRIRHRPPRLPRPRPRPFMMPRP is greater than or equal to -0.1
[A] F

[Q] Exam item: decide whether the reported shrunken log2 fold change for RRIRSRPPRLPRPRPRPTFYPRP is at least -0.1.
[A] F

[Q] Is shrunken log2 fold change at least -0.1? Consider RRIRLRPPRLPRPRPRPENMPRP
[A] F

[Q] Evaluate RRIRSRPPRLPRPRPRPWMDPRP : shrunken log2 fold change at minimum -0.1?
[A] T

---

Overview of recorded shrunken log2 fold change for various sequences
# Test system: Escherichia coli TOP10
# test-protocol: shrunken log2 fold change of peptide-encoding DNA abundance (4.5 h post-induction vs induction); higher = less antimicrobial activity (less host growth inhibition)
# experimental-context: time post-induction: 4.5 h; library: site-saturation at positions 5, 18, 19, 20
Response field accepts a number only; no unit should be typed.

Examples with their reported shrunken log2 fold change follow.
>>> numeric_result("RRIRPRPPRLPRPRPRPPSFPRP")
0.262
>>> numeric_result("RRIRARPPRLPRPRPRPKGKPRP")
1.12
>>> numeric_result("RRIRPRPPRLPRPRPRPTGMPRP")
0.141
>>> numeric_result("RRIRRRPPRLPRPRPRPWLKPRP")
0.127
>>> numeric_result("RRIRFRPPRLPRPRPRPMYKPRP")
-0.662
>>> numeric_result("RRIRYRPPRLPRPRPRPRERPRP")
0.126
>>> numeric_result("RRIRCRPPRLPRPRPRPTVGPRP")
0.224

Next, consider the following sequence.
[Q] Reported shrunken log2 fold change for Escherichia coli TOP10, given RRIRGRPPRLPRPRPRPQARPRP ?
[A] 0.3

---

# System: Escherichia coli TOP10;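 also: peptides expressed intracellularly from a pBAD plasmid library in pooled LB shake-flask culture, induced with 0.3% L-arabinose, DNA abundance read by NGS, three biological replicates, DESeq2 with apeglm shrinkage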
# test-protocol: shrunken log2 fold change of peptide-encoding DNA abundance (4.5 h post-induction vs induction); higher = less antimicrobial activity (less host growth inhibition)
# experimental-context: time post-induction: 4.5 h; library: site-saturation at positions 5, 18, 19, 20
# binarize shrunken log2 fold change: threshold -0.05 inclusive, high side satisfied, low side not satisfied

Worked set:
>>> label_value("RRIRFRPPRLPRPRPRPSFPPRP")
"not satisfied"
>>> label_value("RRIRSRPPRLPRPRPRPGNCPRP")
"satisfied"
>>> label_value("RRIRLRPPRLPRPRPRPITVPRP")
"not satisfied"
>>> label_value("RRIRMRPPRLPRPRPRPFIWPRP")
"satisfied"
>>> label_value("RRIRGRPPRLPRPRPRPNFCPRP")
"satisfied"
>>> label_value("RRIRKRPPRLPRPRPRPPALPRP")
"satisfied"
>>> label_value("RRIRMRPPRLPRPRPRPIAYPRP")
"satisfied"
>>> label_value("RRIRTRPPRLPRPRPRPFPDPRP")
"not satisfied"
>>> label_value("RRIRARPPRLPRPRPRPRSRPRP")
"satisfied"
>>> label_value("RRIRIRPPRLPRPRPRPPEWPRP")
"satisfied"

[Q] Determine whether measured shrunken log2 fold change meets or exceeds -0.05 for RRIRLRPPRLPRPRPRPTQMPRP
[A] satisfied

[Q] Given the entry RRIRCRPPRLPRPRPRPLIPPRP , answer whether its shrunken log2 fold change meets or surpasses -0.05.
[A] not satisfied

[Q] Quick check, shrunken log2 fold change >= -0.05? RRIRKRPPRLPRPRPRPGMLPRP
[A] satisfied

[Q] Can RRIRLRPPRLPRPRPRPNYAPRP be said to have shrunken log2 fold change at or above -0.05?
[A] satisfied
